Target: human delta-like ligand 3 (DLL3) on SHP77 cells (human) (UniProt Q9NYJ7)
Sequence (Q9NYJ7 27-618, stated change not applied): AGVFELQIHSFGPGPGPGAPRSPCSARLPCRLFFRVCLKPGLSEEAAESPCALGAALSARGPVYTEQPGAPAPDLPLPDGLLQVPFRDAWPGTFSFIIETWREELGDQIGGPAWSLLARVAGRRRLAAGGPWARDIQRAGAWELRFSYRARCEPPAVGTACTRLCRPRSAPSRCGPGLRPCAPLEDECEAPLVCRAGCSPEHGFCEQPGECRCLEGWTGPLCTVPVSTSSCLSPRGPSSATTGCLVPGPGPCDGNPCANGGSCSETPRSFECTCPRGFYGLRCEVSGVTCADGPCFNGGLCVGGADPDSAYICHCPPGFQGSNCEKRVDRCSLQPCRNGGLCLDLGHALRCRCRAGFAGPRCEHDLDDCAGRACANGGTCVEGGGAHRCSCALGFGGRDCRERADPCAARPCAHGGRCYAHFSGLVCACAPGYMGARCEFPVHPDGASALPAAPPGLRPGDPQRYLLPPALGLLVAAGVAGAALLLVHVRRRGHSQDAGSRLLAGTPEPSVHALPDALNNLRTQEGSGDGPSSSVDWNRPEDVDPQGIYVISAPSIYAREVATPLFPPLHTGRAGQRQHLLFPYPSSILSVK
Assay: FACS on SHP77 cells
propertyLabel: MFI at 4 nM (MFI)

Hab009VL2aVH1-hFc (scFv, part only; not given: VL-VH linker and human IgG1 Fc, V domains shown, not shown: another chain or arm of the molecule; a dimerising Fc or GST; small tags and cut ends) VL: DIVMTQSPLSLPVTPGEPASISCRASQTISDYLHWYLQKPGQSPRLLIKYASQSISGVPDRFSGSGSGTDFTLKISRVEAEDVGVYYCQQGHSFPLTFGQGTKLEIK VH: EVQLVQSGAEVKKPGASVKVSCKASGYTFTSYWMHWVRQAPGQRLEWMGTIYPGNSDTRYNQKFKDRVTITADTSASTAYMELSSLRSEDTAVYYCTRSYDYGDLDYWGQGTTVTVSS: 784
Hab008L1H5-hFc (scFv, part only; not given: VL-VH linker and human IgG1 Fc, V domains shown, not shown: another chain or arm of the molecule; a dimerising Fc or GST; small tags and cut ends) VL: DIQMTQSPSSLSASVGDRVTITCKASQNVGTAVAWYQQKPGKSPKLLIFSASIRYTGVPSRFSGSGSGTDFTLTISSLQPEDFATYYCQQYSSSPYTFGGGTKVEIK VH: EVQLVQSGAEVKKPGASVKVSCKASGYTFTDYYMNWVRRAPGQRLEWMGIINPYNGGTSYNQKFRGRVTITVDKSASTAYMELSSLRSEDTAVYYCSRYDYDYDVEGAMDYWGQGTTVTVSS: 333
Hab015VL4VH6a-hFc (scFv, part only; not given: scFv linker and human IgG1 Fc, V domains shown, not shown: another chain or arm of the molecule; a dimerising Fc or GST; small tags and cut ends) VL: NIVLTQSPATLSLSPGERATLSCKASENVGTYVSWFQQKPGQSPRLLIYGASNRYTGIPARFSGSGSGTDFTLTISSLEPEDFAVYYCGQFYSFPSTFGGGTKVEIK VH: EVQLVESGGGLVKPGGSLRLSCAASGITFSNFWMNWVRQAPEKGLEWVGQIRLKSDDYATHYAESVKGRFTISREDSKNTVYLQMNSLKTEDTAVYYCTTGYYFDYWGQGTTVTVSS: 821
Hab015VL4VH5a-hFc (scFv, part only; not given: VL-VH linker and human IgG1 Fc, V domains shown, not shown: another chain or arm of the molecule; a dimerising Fc or GST; small tags and cut ends) VL: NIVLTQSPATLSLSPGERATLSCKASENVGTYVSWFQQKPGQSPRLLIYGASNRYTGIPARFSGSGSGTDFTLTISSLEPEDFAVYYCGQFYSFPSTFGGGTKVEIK VH: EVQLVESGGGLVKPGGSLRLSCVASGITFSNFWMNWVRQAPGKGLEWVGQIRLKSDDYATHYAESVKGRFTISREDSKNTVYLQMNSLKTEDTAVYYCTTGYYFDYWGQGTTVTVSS: 812
